test system: purified HLA DRB1*0701 (Homo sapiens, UniProt P01903+P01911, A100R/A102G/A103Q/D57E/D86V/E43K/F76Y/K127E/L162R/M171V/P40G/Q125H/Q99D/R33Q/R42Y/R54Q/S133A/S66F/T210M/V115G/Y107V/Y59L/Y89S)
Construct: purified from EBV transformed homozygous cell lines or single MHC allele transfected 721.221, C1R, or fibroblast lines; made in house
assay protocol: HLA-DR radioligand binding inhibition assay, DRB1*0701
settings: IC50 nM purified HLA DRB1 *0701, purified HLA DRB1*0701
endpoint: IC50 (nM)
Respond with the bare value in nM.

// known answers, use as guide
CC[C@H](C)[C@H](N)C(=O)N[C@@H](CO)C(=O)N[C@@H](C)C(=O)N[C@H](C(=O)N[C@H](C(=O)NCC(=O)N[C@H](C(=O)N[C@@H](CC(C)C)C(=O)N[C@@H](CC(C)C)C(=O)N[C@H](C(=O)N[C@H](C(=O)N[C@H](C(=O)N[C@@H](CC(C)C)C(=O)NCC(=O)N[C@H](C(=O)O)C(C)C)C(C)C)C(C)C)C(C)C)[C@@H](C)CC)C(C)C)C(C)C [Peptide 9019.0067] = 941
CC[C@H](C)[C@H](NC(=O)[C@@H](N)CO)C(=O)N[C@H](C(=O)N[C@H](C(=O)N[C@@H](CO)C(=O)N[C@@H](C)C(=O)N[C@@H](CO)C(=O)NCC(=O)N[C@H](C(=O)N[C@@H](CO)C(=O)N1CCC[C@H]1C(=O)NCC(=O)N[C@@H](CC(C)C)C(=O)N[C@@H](CO)C(=O)N[C@@H](C)C(=O)O)[C@@H](C)O)C(C)C)[C@@H](C)O [Peptide 9019.0143] = 1560
CSCC[C@H](NC(=O)[C@@H](NC(=O)[C@H](CO)NC(=O)[C@H](CC(=O)O)NC(=O)[C@@H](NC(=O)[C@H](Cc1c[nH]cn1)NC(=O)[C@H](CC(N)=O)NC(=O)[C@H](CCC(=O)O)NC(=O)[C@@H](NC(=O)[C@H](CC(C)C)NC(=O)CNC(=O)CNC(=O)[C@H](CCC(=O)O)NC(=O)[C@@H](N)CO)C(C)C)C(C)C)[C@@H](C)O)C(=O)N[C@@H](CC(N)=O)C(=O)O [Peptide 9019.0183] = 4620

Now turn to the next compound.
Item: CC[C@H](C)[C@H](NC(=O)[C@H](CC(C)C)NC(=O)[C@H](C)NC(=O)[C@@H](NC(=O)CNC(=O)[C@@H](NC(=O)[C@H](CC(C)C)NC(=O)[C@@H](NC(=O)CNC(=O)[C@@H](NC(=O)[C@H](CCSC)NC(=O)[C@@H](NC(=O)CNC(=O)[C@@H](NC(=O)[C@@H](N)[C@@H](C)O)C(C)C)[C@@H](C)CC)[C@@H](C)CC)C(C)C)C(C)C)C(C)C)C(=O)O [Peptide 1622.05] | IC50: 4450

====

Recorded IC50 by entry
test system: purified HLA DRB1*1501 (Homo sapiens, UniProt P01903+P01911)
Construct: purified from EBV transformed homozygous cell lines or single MHC allele transfected 721.221, C1R, or fibroblast lines; made in house
assay protocol: HLA-DR radioligand binding inhibition assay, DRB1*1501
Procedure: Instead, wells of an opaque white 96-well Optiplate (Packard) are coated with 3 μg (100 μl@ 30 μg/ml) of HLA-specific antibody (Ab) that “capture” complexes of radiolabeled MHC and unlabeled peptide transferred from the molecular binding assay plate in 100 μl of 0.05% NP40/PBS. […] Captured complexes are then measured on a microplate scintillation and luminescence counter (TopCount NXTTM; Packard). […]
Just the number plus its unit, please.

// known answers, use as guide
CC[C@H](C)[C@H](NC(=O)[C@H](CC(C)C)NC(=O)[C@H](C)NC(=O)[C@@H](NC(=O)CNC(=O)[C@@H](NC(=O)[C@H](CC(C)C)NC(=O)[C@@H](NC(=O)CNC(=O)[C@@H](NC(=O)[C@H](CCSC)NC(=O)[C@@H](NC(=O)CNC(=O)[C@@H](NC(=O)[C@@H](N)[C@@H](C)O)C(C)C)[C@@H](C)CC)[C@@H](C)CC)C(C)C)C(C)C)C(C)C)C(=O)O [Peptide 1622.05] = 7770 nM
CC[C@H](C)[C@H](NC(=O)CNC(=O)[C@@H](NC(=O)[C@@H](NC(=O)[C@H](C)NC(=O)CNC(=O)[C@H](C)NC(=O)[C@H](CO)NC(=O)[C@H](CC(C)C)NC(=O)CNC(=O)[C@@H]1CCCN1C(=O)[C@@H](N)CO)[C@@H](C)O)C(C)C)C(=O)N[C@@H](CCSC)C(=O)N[C@H](C(=O)NCC(=O)O)[C@@H](C)CC [Peptide 9019.0144] = 3930 nM

Item: CC[C@H](C)[C@H](NC(=O)[C@H](CCSC)NC(=O)[C@H](Cc1c[nH]c2ccccc12)NC(=O)[C@H](CS)NC(=O)[C@H](CCCCN)NC(=O)[C@@H](NC(=O)[C@H](CCSC)NC(=O)[C@@H](NC(=O)[C@H](CCSC)NC(=O)[C@H](Cc1ccc(O)cc1)NC(=O)[C@@H](NC(=O)[C@@H](N)CC(=O)O)C(C)C)[C@@H](C)CC)C(C)C)C(=O)N[C@@H](CC(=O)O)C(=O)N[C@@H](CO)C(=O)N[C@@H](CCC(=O)O)C(=O)O [Peptide 9019.0094] | IC50: 1300 nM

====

test system: purified HLA DRB1*0405 (Homo sapiens, UniProt P01903+P01911, A100R/A169T/D86S/F76Y/I96L/K127E/L162R/M171V/N62H/P40V/Q125Y/R42H/S133A/S149N/S66Y/V115G/V209L/W38E)
Construct: purified from EBV transformed homozygous cell lines or single MHC allele transfected 721.221, C1R, or fibroblast lines; made in house
assay protocol: HLA-DR radioligand binding inhibition assay, DRB1*0405
settings: IC50 nM purified HLA DRB1 *0405, purified HLA DRB1*0405
endpoint: IC50 (nM)
Respond with the bare value in nM.

CSCC[C@H](NC(=O)CNC(=O)[C@H](CC(C)C)NC(=O)[C@H](CC(=O)O)NC(=O)CNC(=O)[C@@H](N)CC(=O)O)C(=O)NCC(=O)N[C@@H](C)C(=O)N[C@@H](C)C(=O)N[C@@H](CCCCN)C(=O)NCC(=O)N[C@@H](CC(C)C)C(=O)N[C@@H](CCC(N)=O)C(=O)N[C@@H](CO)C(=O)N[C@@H](CC(C)C)C(=O)O [Peptide 9019.0097] = 5800

Now turn to the next compound.
Item: CC[C@H](C)[C@H](NC(=O)[C@@H](NC(=O)[C@H](Cc1c[nH]cn1)NC(=O)[C@@H](N)CC(C)C)C(C)C)C(=O)N[C@@H](CCCCN)C(=O)N[C@@H](CO)C(=O)N[C@@H](CC(=O)O)C(=O)N[C@@H](CC(C)C)C(=O)N[C@H](C(=O)N[C@@H](CC(N)=O)C(=O)N[C@@H](CCC(=O)O)C(=O)N[C@@H](CCC(=O)O)C(=O)N[C@@H](C)C(=O)N[C@H](C(=O)NCC(=O)O)[C@@H](C)O)C(C)C [Peptide 9019.0005] | IC50: 37

====

test system: purified HLA DRB1*0901 (Homo sapiens, UniProt P01903+P01911, A100R/A103E/D57H/D86V/F55Y/F60I/F76Y/I96F/K127E/L162R/M171V/P40D/Q125H/Q99R/R33Q/R42F/S133A/S66N/T210M/V115G/W38K/Y107V/Y59G/Y89S)
Construct: purified from EBV transformed homozygous cell lines or single MHC allele transfected 721.221, C1R, or fibroblast lines; made in house
assay protocol: HLA-DR radioligand binding inhibition assay, DRB1*0901
settings: IC50 nM purified HLA DRB1 *0901, purified HLA DRB1*0901
endpoint: IC50 (nM)
Respond with the bare value in nM.

Item: CC[C@H](C)[C@H](NC(=O)[C@H](CS)NC(=O)[C@H](CC(C)C)NC(=O)[C@@H](N)CCCCN)C(=O)N[C@@H](Cc1ccc(O)cc1)C(=O)N[C@H](C(=O)N[C@@H](CC(=O)O)C(=O)N[C@@H](CC(N)=O)C(=O)N[C@@H](CO)C(=O)N[C@H](C(=O)N[C@@H](CCCNC(=N)N)C(=O)N1CCC[C@H]1C(=O)N[C@@H](CCC(=O)O)C(=O)N[C@@H](CCC(=O)O)C(=O)N[C@@H](CC(C)C)C(=O)O)[C@@H](C)CC)[C@@H](C)O [Peptide 9019.0159] | IC50: 15900
